test: in vitro; settings: rat, gh3-tre-luc cells, AC50 (uM) modified / 1000
value.kind: CC50 at 24 h

{"molecule": "Fc1c(F)c(F)c(Br)c(F)c1F [Bromopentafluorobenzene]", "CC50 at 24 h": "> 90 µM"}
{"molecule": "CC(C)c1cccc(O)c1 [3-Isopropylphenol]", "CC50 at 24 h": "> 100 µM"}

[in] Query: CC50 at 24 h; subject: N[C@H](CCC(=O)O)C(=O)O [D-Glutamic acid]
[out] > 50 µM

###

experiment: in vitro; conditions: rat, gh3-tre-luc cells, AC50 (uM) modified / 1000
Counter-ions that a name gives are not always drawn.
Recorded CC50 at 24 h values for a group of molecules are listed next.

Record excerpt, results attached:
{"molecule": "Cc1ccc(Nc2ccc(O)c3c2C(=O)c2ccccc2C3=O)cc1", "CC50 at 24 h": "> 90 µM"}
{"molecule": "COC(=O)CCc1ccc(OCC(O)CNC(C)C)cc1 (stereo not drawn) [Esmolol hydrochloride]", "CC50 at 24 h": "> 50 µM"}
{"molecule": "N#Cc1ccccc1O [2-Hydroxybenzonitrile]", "CC50 at 24 h": "> 90 µM"}
{"molecule": "CCCCN(CCCC)CCCCCCN(CCCC)CCCC", "CC50 at 24 h": "> 90 µM"}
{"molecule": "C[N+](C)=CCl", "CC50 at 24 h": "> 90 µM"}

Now turn to the next molecule.
[in] Query: CC50 at 24 h; subject: CN(C)CCC(O)(c1ccccc1)c1ccccc1Cl (stereo not drawn)
[out] 26 µM

###

experiment: in vitro; settings: rat, gh3-tre-luc cells, AC50 (uM) modified / 1000
Where a name gives a salt, the structure may show the parent alone.
value.kind: CC50 at 24 h

Record excerpt, results attached:
{"compound": "OCC=CCO", "CC50 at 24 h": "> 90 µM"}
{"compound": "C[C@]12C[C@H](O)[C@H]3[C@@H](CCC4=CC(=O)CC[C@@]43C)[C@@H]1CC[C@@H]2C(=O)CO", "CC50 at 24 h": "> 90 µM"}
{"compound": "CCN(CC)CCNC(=O)c1cc(Cl)c(N)cc1OC [Metoclopramide]", "CC50 at 24 h": "> 50 µM"}
{"compound": "Nc1nc2c(c(=O)[nH]1)N(C=O)C(CNc1ccc(C(=O)N[C@@H](CCC(=O)O)C(=O)O)cc1)CN2 (some centres unmarked) [Calcium folinate pentahydrate]", "CC50 at 24 h": "> 20 µM"}
{"compound": "CCOc1ccc2nc3cc(N)ccc3c(N)c2c1 [Ethacridine lactate hydrate]", "CC50 at 24 h": "> 50 µM"}

[in] Query: CC50 at 24 h; subject: O=S(=O)(c1cccc2cnccc12)N1CCCNCC1 [Fasudil hydrochloride]
[out] > 50 µM

[in] Query: CC50 at 24 h; subject: N#C/N=C1\SCCN1Cc1ccc(Cl)nc1
[out] > 90 µM

###

experiment: in vitro; settings: rat, gh3-tre-luc cells, AC50 (uM) modified / 1000
Structures can show the parent of a compound that is named as a salt.
Recorded CC50 at 24 h values for a group of compounds are listed next.

Record excerpt, results attached:
{"compound": "CCCCCCC(=O)c1ccccc1", "value.kind": "CC50 at 24 h", "measurement": "> 90 µM"}
{"compound": "CCCCCCCCCCCCCCCCOS(=O)(=O)O [Sodium hexyldecyl sulfate]", "value.kind": "CC50 at 24 h", "measurement": "50.6 µM"}
{"compound": "CCCCCCOc1cc(C)c(O)c(C)c1C [1-O-Hexyl-2,3,5-trimethylhydroquinone]", "value.kind": "CC50 at 24 h", "measurement": "42.6 µM"}
{"compound": "COc1ccc(C(=O)CCC(=O)O)c2ccccc12", "value.kind": "CC50 at 24 h", "measurement": "> 50 µM"}

[in] Query: CC50 at 24 h; subject: CC1=C(C=O)C(C)(C)CC=C1
[out] > 100 µM

[in] Query: CC50 at 24 h; subject: C[C@]12CCC(=O)C=C1CC[C@@H]1[C@@H]2[C@@H](O)C[C@@]2(C)[C@H]1CC[C@]2(O)C(=O)COP(=O)(O)O [Hydrocortisone sodium phosphate]
[out] > 50 µM

[in] Query: CC50 at 24 h; subject: Cc1cccc2sc3nncn3c12
[out] > 90 µM

###

Recorded CC50 at 24 h values for a group of molecules are listed next.
assay: in vitro; conditions: rat, gh3-tre-luc cells, AC50 (uM) modified / 1000

Record excerpt, results attached:
{"molecule": "CN1C(=O)CC[C@H]1c1cccnc1", "CC50 at 24 h": "> 90 µM"}
{"molecule": "O=C(NCCc1c[nH]c2ccccc12)c1cccnc1", "CC50 at 24 h": "> 50 µM"}
{"molecule": "O=C1c2ccccc2C(=O)c2cc(Cl)ccc21", "CC50 at 24 h": "> 5 µM"}
{"molecule": "C=CC(O)CCCCC (stereo not drawn)", "CC50 at 24 h": "> 90 µM"}

Now turn to the next molecule.
[in] Query: CC50 at 24 h; subject: COC(=O)c1c(Cl)c(Cl)c(C(=O)OC)c(Cl)c1Cl
[out] > 90 µM

###

assay: in vitro; settings: rat, gh3-tre-luc cells, AC50 (uM) modified / 1000
Recorded CC50 at 24 h values for a group of compounds are listed next.

Record excerpt, results attached:
{"structure.notation": "CSc1ccc(Oc2ccc(S(N)(=O)=O)cc2CN(C)C)cc1C", "CC50 at 24 h": "36.3 µM"}
{"structure.notation": "C=CC1=C(C(=O)O)N2C(=O)[C@@H](NC(=O)/C(=N\\OCC(=O)O)c3csc(N)n3)[C@H]2SC1", "CC50 at 24 h": "> 20 µM"}

[in] Query: CC50 at 24 h; subject: Brc1nc2ccccc2s1
[out] > 90 µM

###

assay: in vitro; settings: rat, gh3-tre-luc cells, AC50 (uM) modified / 1000
value.kind: CC50 at 24 h

Record excerpt, results attached:
{"compound": "CCCCNC(=O)NS(=O)(=O)c1ccc(C)cc1 [Tolbutamide]", "CC50 at 24 h": "> 90 µM"}
{"compound": "C=C(C)C(=O)OCCC[Si](OC)(OC)OC [3-(Trimethoxysilyl)propyl methacrylate]", "CC50 at 24 h": "> 90 µM"}
{"compound": "CCN(CC)c1ccccc1 [N,N-Diethylaniline]", "CC50 at 24 h": "> 90 µM"}

Now turn to the next compound.
[in] Query: CC50 at 24 h; subject: C=CCN1C[C@H](C)N([C@H](c2ccc(C(=O)N(CC)CC)cc2)c2cccc(OC)c2)C[C@H]1C [SNC 80]
[out] 28.8 µM

###

test: in vitro; conditions: rat, gh3-tre-luc cells, AC50 (uM) modified / 1000
Recorded CC50 at 24 h values for a group of molecules are listed next.

Record excerpt, results attached:
{"molecule": "C=C(C)C(=O)OCCCCCCCCCCCCC [Tridecyl methacrylate]", "CC50 at 24 h": "> 90 µM"}
{"molecule": "OC[C@H]1O[C@H](O[C@]2(CCl)O[C@H](CCl)[C@@H](O)[C@@H]2O)[C@H](O)[C@@H](O)[C@H]1Cl", "CC50 at 24 h": "> 90 µM"}

Now turn to the next molecule.
[in] Query: CC50 at 24 h; subject: CC(C(=O)O)c1ccc(C2CCCCC2)c2ccccc12 (stereo not drawn)
[out] > 50 µM

###

Recorded CC50 at 24 h values for a group of compounds are listed next.
assay: in vitro; settings: rat, gh3-tre-luc cells, AC50 (uM) modified / 1000

{"compound": "CCCCCCCCCCCCCC[n+]1ccccc1 [Tetradecylpyridinium bromide]", "CC50 at 24 h": "6.51 µM"}
{"compound": "O=S(=O)(O)CO [Sodium hydroxymethanesulfonate]", "CC50 at 24 h": "> 90 µM"}
{"compound": "CC1=Nc2ccccc2C1(C)C [2,3,3-Trimethylindolenine]", "CC50 at 24 h": "> 90 µM"}

[in] Query: CC50 at 24 h; subject: CC(C)(C1CCC(O)CC1)C1CCC(O)CC1 (centres unmarked) [4,4'-Propane-2,2-diyldicyclohexanol]
[out] > 90 µM

[in] Query: CC50 at 24 h; subject: CCCCN1C[C@H](O)[C@@H](O)[C@H](O)[C@H]1CO [Miglustat]
[out] > 50 µM

###

Recorded CC50 at 24 h values for a group of compounds are listed next.
assay: in vitro; conditions: rat, gh3-tre-luc cells, AC50 (uM) modified / 1000

Record excerpt, results attached:
{"compound": "C[N+]1(C)CCN(CC(O)(c2ccccc2)C2CCCCC2)CC1 (centres unmarked) [Hexocyclium]", "CC50 at 24 h": "> 50 µM"}
{"compound": "CO[C@@H]1[C@@H](O[C@@H]2O[C@H](C)[C@@H](O[C@H]3C[C@@](C)(O)[C@@H](OC(=O)CC(C)C)[C@H](C)O3)[C@H](N(C)C)[C@H]2O)[C@@H](CC=O)C[C@@H](C)[C@@H](O)/C=C/C=C/C[C@@H](C)OC(=O)C[C@H]1OC(C)=O", "CC50 at 24 h": "> 20 µM"}
{"compound": "O=S(=O)(O)c1cc(I)c(O)c2ncccc12", "CC50 at 24 h": "> 50 µM"}
{"compound": "Oc1ccc(Sc2ccc(O)cc2)cc1", "CC50 at 24 h": "47.9 µM"}
{"compound": "CC(C)N(C(=O)SCC(Cl)=C(Cl)Cl)C(C)C [Tri-allate]", "CC50 at 24 h": "55.9 µM"}
{"compound": "Clc1ccc(C(Cn2ccnc2)OCc2c(Cl)cccc2Cl)c(Cl)c1 (centres unmarked)", "CC50 at 24 h": "13.8 µM"}

[in] Query: CC50 at 24 h; subject: Cc1ncc(COP(=O)(O)O)c(C=O)c1O [Pyridoxal phosphate hydrate]
[out] > 50 µM

[in] Query: CC50 at 24 h; subject: CCCCCCCC(=O)Cl [Caprylyl chloride]
[out] > 90 µM

[in] Query: CC50 at 24 h; subject: Nc1ccc(S(=O)(=O)Nc2cnc3ccccc3n2)cc1
[out] > 90 µM
